- EXPERIMENTAL DETAILS: NCI Yeast Anticancer Drug Screen. Data for the mlh1 rad18 strain (AID 175)
- CONDITIONS: S. cerevisiae mlh1 rad18 strain growth inhibition; at 50.0 µM; hits give high values
This is part of a sample that, as a whole, favours compounds with a hit. Of some 79,000 tested, about 15% had one in any assay.
Item-by-item account of growth inhibition

COMPOUND	MEASUREMENT UNITS	growth inhibition
Nc1ccc(S(=O)(=O)O)c(N)c1	%	3.95
CN1CCC2(C1)C1CC3CC(C1)CC2C3 (stereo unspecified)	%	-9.35
O=C(O)/C=C/C(=O)Nc1ncn[nH]1	%	-5.4
C/C(=N/Nc1ccc([N+](=O)[O-])cc1[N+](=O)[O-])C(CC(C(=O)NCc1ccccc1)/C(C)=N\Nc1ccc([N+](=O)[O-])cc1[N+](=O)[O-])C(=O)NCc1ccccc1 (stereo unspecified)	%	11.8
C(CN1CCC2CCC(C2)C1)=C(c1ccccc1)c1ccccc1 (stereo unspecified)	%	4.35
CC(=O)CC(=O)Nc1ccccc1C(C)C	%	-1.7
CCN(CCNc1cc(OC)cc2cccnc12)c1ccccc1	%	68.2
c1ccc(-c2cc3cc4c(cc3[nH]2)Oc2ccccc2O4)cc1	%	3.1
CCCCCCCCn1nnnc1N	%	8.1
Cc1n[nH]c(=O)n1N1C(=O)c2ccccc2C1=O	%	-26.6
Cc1cccc(C)n1	%	-21.4
O=C(COc1cccc(Cl)c1)Nc1ccc(Cl)cc1	%	4.3
CC(C)(C)OC(=O)c1cccc(Br)c1	%	11.1
c1ccc2[nH]c(-c3nc4ccccc4s3)cc2c1	%	1.25
O=C(Cc1nc2ccccc2[nH]c1=O)c1cccnc1	%	16.3
N#CCCN1CCCC1=O	%	6.15
O=C(CC1CCCCC1)OCC1CCCO1 (stereo unspecified)	%	4.55
CC1=C2CCCCC2(C)C=C(C(=O)O)C1=O (stereo unspecified)	%	23.4
CC(=O)OC1CCC2(C)C(CCC3(C)C2CC=C2C4CC(C)(C)CCC4(C)CCC23C)C1(C)C (stereo unspecified)	%	-5.3
N[C@@H](CO)[C@@H](O)c1ccc([N+](=O)[O-])cc1	%	-4.6
CC(C)(C)OC(=O)Cc1c[nH]c2ccccc12	%	-41.1
O=C(CC(C(=O)c1cccs1)c1cccs1)c1ccccc1Cl (stereo unspecified)	%	-8.15
OCc1ccc2[n+](c1)CCC1c3ccccc3NC21 (stereo unspecified)	%	-6.45
CCCCOCCOCCO	%	1.5
O=c1c2ccccc2nc(-c2ccccc2Cl)n1/N=C/c1ccc(Cl)cc1Cl	%	6.1
CCN(CC)C(=O)N1C=CC(C)C=C1	%	5.5
